testedSystem: SIRT1 (Homo sapiens)
Sequence (Q96EB6 whole entry): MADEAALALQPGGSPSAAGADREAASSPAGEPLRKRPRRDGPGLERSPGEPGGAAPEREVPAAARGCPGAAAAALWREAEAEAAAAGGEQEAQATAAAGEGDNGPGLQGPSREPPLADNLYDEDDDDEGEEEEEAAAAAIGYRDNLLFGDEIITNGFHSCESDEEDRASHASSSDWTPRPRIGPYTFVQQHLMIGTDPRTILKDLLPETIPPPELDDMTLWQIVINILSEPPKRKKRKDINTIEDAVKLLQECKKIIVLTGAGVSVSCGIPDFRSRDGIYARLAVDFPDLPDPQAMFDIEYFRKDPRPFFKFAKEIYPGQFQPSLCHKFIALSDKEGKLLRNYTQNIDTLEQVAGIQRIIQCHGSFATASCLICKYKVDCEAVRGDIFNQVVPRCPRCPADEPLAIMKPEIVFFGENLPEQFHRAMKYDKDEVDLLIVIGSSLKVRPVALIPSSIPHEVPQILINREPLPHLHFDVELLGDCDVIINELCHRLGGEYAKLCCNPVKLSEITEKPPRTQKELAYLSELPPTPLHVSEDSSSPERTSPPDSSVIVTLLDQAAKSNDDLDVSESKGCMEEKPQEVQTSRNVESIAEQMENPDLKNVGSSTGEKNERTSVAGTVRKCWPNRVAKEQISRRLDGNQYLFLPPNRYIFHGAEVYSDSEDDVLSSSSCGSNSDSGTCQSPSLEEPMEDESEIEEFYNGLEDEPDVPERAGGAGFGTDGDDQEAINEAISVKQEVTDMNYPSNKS
protocolText: TAMRA based mass spectrometry assay of SIRT1 activation
Format: biochemical
appliedConditions: concentration giving 150% activation of SIRT1; TAMRA peptide substrate
measure: TAMRA EC1.5 (μM)

The examples below pair each entry with its known result.
*Q* Please give the measured TAMRA EC1.5 (μM) for this molecule: `O=C(Nc1ccc2ncc(-c3ccccc3Cl)n2n1)c1cnccn1`
*A* C (EC1.5>25 μM)

*Q* And then `O=C(Nc1ccnc(C(F)(F)F)c1)c1ccc2ncc(-c3cccc(Cl)c3)n2n1` , what is it?
*A* B (EC1.5 1-25 μM)

*Q* And then `O=C(Nc1ccccn1)c1ccc2nnc(-c3cccc(N4CCOCC4)c3)n2n1` , what is it?
*A* C (EC1.5>25 μM)

*Q* And then `O=C(Nc1cccc(N2CCOCC2)n1)c1ccc2ncc(-c3ccccc3F)n2n1` , what is it?
*A* C (EC1.5>25 μM)

*Q* And then `O=C(Nc1ccc2ncc(-c3ccccc3F)n2n1)c1cnccn1` , what is it?
*A* C (EC1.5>25 μM)

*Q* And then `O=C(Nc1ccnc(C(F)(F)F)c1)c1ccc2ncc(-c3ccccc3Cl)n2n1` , what is it?
*A* B (EC1.5 1-25 μM)

*Q* And then `O=C(Nc1ccc(F)cn1)c1ccc2ncc(-c3cccc(C(F)(F)F)c3)n2n1` , what is it?
*A* B (EC1.5 1-25 μM)

Further cases:
*Q* Please give the measured TAMRA EC1.5 (μM) for this molecule: `O=C(Nc1nccs1)c1ccc2nnc(-c3cccc(OC(F)(F)F)c3)n2n1`
*A* C (EC1.5>25 μM)

These entries and their values trace back to patent US20140249147A1.
